All values here come from ChEMBL document CHEMBL3286106.

- protocol-notes: Cytotoxicity against human L02 cells after 48 hrs by MTT assay
- Type: cell-based
- study-conditions: L02, 48 h
pIC50: −log10 of the molar value.
test-readout: pIC50

[[record]]
molecule = "CCOC(=O)C1C(=O)NC(NC(C)=O)=NC1c1ccc(Br)cc1F (stereo not drawn)"
reported = "< 2.00"

[[record]]
molecule = "CCOC(=O)C1C(=O)NC(NC(C)=O)=NC1c1ccc(Cl)cc1Cl (stereo not drawn)"
reported = "< 2.00"

[[record]]
molecule = "CCOC(=O)C1C(=O)NC(NC(C)=O)=NC1c1ccccc1[N+](=O)[O-] (stereo not drawn)"
reported = "< 2.00"

